Biological target: T1, cynomolgus monkey C-KIT-Fc (cynomolgus monkey)
T1 construct: also called cyno C-KIT-Fc
Assay: HTRF competition vs Tb-h37M IgG1
Property Name: log10(IC50) (log10 of the value in µg/mL)
Kindly note that the scale is log10 and the underlying IC50 is in µg/mL.

MH5.34 (antibody, IgG1, V domains shown, IgG1; also called C-KIT-MH5.34) VH: QVQLVQSGAEVKKPGASVKVSCKASGYTFTNYYMNWVRQAPGQGLEWMGRIYPASGNTYYAQKFQGRVTMTRDTSTSTVYMELSSLRSEDTAVYYCARGVWYFDSWGQGTLVTVSS VL: DIQMTQSPSSLSASVGDRVTITCRASQGIRTNLAWFQQKPGKAPKSLIYAASSLQSGVPSRFSGSGSGTDFTLTISSLQPEDFATYYCQQYANYPRTFGGGTKVEIK : -0.27
MH5.35 (antibody, IgG1, V domains shown, IgG1; also called C-KIT-MH5.35) VH: QVQLVQSGAEVKKPGASVKVSCKASGYTFTNYYMNWVRQAPGQGLEWMGRIYPASGNTYYAQKFQGRVTMTRDTSTSTVYMELSSLRSEDTAVYYCARGVWYFDTWGQGTLVTVSS VL: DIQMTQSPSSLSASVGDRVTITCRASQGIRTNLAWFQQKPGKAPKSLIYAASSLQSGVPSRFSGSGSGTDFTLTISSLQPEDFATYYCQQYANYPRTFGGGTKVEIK : -0.11
MH5.22 (antibody, IgG1, V domains shown, IgG1; also called C-KIT-MH5.22) VH: QVQLVQSGAEVKKPGASVKVSCKASGYTFTDFYMNWVRQAPGQGLEWMGRIYPASGNTYYAQKFQGRVTMTRDTSTSTVYMELSSLRSEDTAVYYCARGVWYYDYWGQGTLVTVSS VL: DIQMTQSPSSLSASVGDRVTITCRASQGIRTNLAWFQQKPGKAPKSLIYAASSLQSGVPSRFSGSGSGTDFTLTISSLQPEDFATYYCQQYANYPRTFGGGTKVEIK : -0.79
MH5.1 (antibody, IgG1, V domains shown, IgG1; also called C-KIT-MH5.1) VH: QVQLVQSGAEVKKPGASVKVSCKASGYTFTNYYMNWVRQAPGQGLEWMGRIYPGTGNTYYAQKFQGRVTMTRDTSTSTVYMELSSLRSEDTAVYYCARGVWYYDYWGQGTLVTVSS VL: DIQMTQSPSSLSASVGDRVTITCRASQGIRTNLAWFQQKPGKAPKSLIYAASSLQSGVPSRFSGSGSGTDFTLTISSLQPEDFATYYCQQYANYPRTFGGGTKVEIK : -0.20

Q) Look up log10(IC50) for this binder: MH5.23 (antibody, IgG1, V domains shown, IgG1; also called C-KIT-MH5.23) VH: QVQLVQSGAEVKKPGASVKVSCKASGYTFTDFYMNWVRQAPGQGLEWMGRIYPASGNTYYAQKFQGRVTMTRDTSTSTVYMELSSLRSEDTAVYYCARGVWYFDSWGQGTLVTVSS VL: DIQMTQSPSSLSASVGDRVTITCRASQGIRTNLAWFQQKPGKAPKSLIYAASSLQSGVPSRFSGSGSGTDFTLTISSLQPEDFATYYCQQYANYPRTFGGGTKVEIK
A) 0.51
